The values you see were collected from the supplement of paper PMC9112550.

Could you please report measured shrunken log2 fold change for the items listed next?
test system: Escherichia coli TOP10; experiment: shrunken log2 fold change of peptide-encoding DNA abundance (4.5 h post-induction vs induction); higher = less antimicrobial activity (less host growth inhibition); settings: time post-induction: 4.5 h; library: site-saturation at positions 5, 18, 19, 20;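 also: peptides expressed intracellularly from a pBAD plasmid library in pooled LB shake-flask culture, induced with 0.3% L-arabinose, DNA abundance read by NGS, three biological replicates, DESeq2 with apeglm shrinkage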
// return a plain number; no unit text

Lab note: measured shrunken log2 fold change of `RRIRSRPPRLPRPRPRPTEQPRP` was -0.0196

Please fill in: shrunken log2 fold change reported for `RRIRLRPPRLPRPRPRPTARPRP` = 1.13

Recorded result, `RRIRYRPPRLPRPRPRPHLNPRP` , shrunken log2 fold change: -1.15

Quick note, shrunken log2 fold change for `RRIRVRPPRLPRPRPRPACTPRP` landed at -0.0478

So, `RRIRTRPPRLPRPRPRPIRTPRP` ? Its shrunken log2 fold change was 0.063

Quick note, shrunken log2 fold change for `RRIRSRPPRLPRPRPRPGEGPRP` landed at 0.367

So for `RRIRFRPPRLPRPRPRPHLMPRP` , the logged shrunken log2 fold change turned out to be -0.149
